Origin of the recorded values: ChEMBL document CHEMBL1201862

Reported GI50 values, HCT-15.
Numbers only, in µM.

In the examples that follow, each entry is paired with its recorded GI50.
Molecule	GI50 [µM]
CSc1ccc(/C=C/c2ccnc3ccccc23)cc1	11.5
COc1cc(/C=C\c2ccccc2)cc(OC)c1OC	2.6
C#CCCCCC#Cc1ccccc1C(=O)OC	63.8
CN1/C(=C/C(=O)c2ccc(Cl)cc2)Nc2ccccc21	45.9
COc1ccc(/C=C/C(=O)c2sc(Nc3ccc([N+](=O)[O-])cc3)nc2C)cc1	34.4
CCOC(=O)c1ccc(NC(=O)O/N=C(/Cl)CC)cc1	13.5
c1ccc2c(c1)CCN1CCc3c([nH]c4ccccc34)C21 (configuration not stated)	36.9
COC1(C)OC[C@@]2(C)OC(C)C1(C)C2O[Si](C(C)C)(C(C)C)C(C)C (some centres not stated)	22.4
CCCn1c2ccccc2c2ccc3c(c21)C(=O)C=CC3=O	2.24
N#C/C(=C1\SC(/N=N/c2ccc(Cl)cc2)C(=O)N1c1ccccc1)c1nc2ccccc2[nH]1 (configuration not stated)	65.8

Could you report GI50 for every entry in the following list?
1. Cc1coc2c1C[C@@]1(C)[C@H](CCC[C@@H]1C)[C@H]2O
2. COc1ccc(/C=C/C(=O)C(C)(C)C)cc1OC
3. Cc1ccc2sc3ccc(N)cc3c(=O)c2c1

36.2
38.5
24.8

---

Exercise: state measured GI50 for each of the compounds provided.
test system: LOX IMVI; assay: NCI tumour cell line growth inhibition, 48 h
Active and inactive are the calls of the source. Cut-off read from the data, not from the text of the source: active = GI50 up to about 1.1 µM and inactive = higher.

Compound	GI50
CSc1nc(NC2OC(COC(C)=O)C(OC(C)=O)C(OC(C)=O)C2OC(C)=O)c2c(n1)OCC2=O (stereo not drawn)	> 100 µM (inactive)
O=C1C=C(Nc2ccccc2C(=O)CC(=O)C(=O)Nc2cccc([N+](=O)[O-])c2)c2ccccc2C1=O	4.82 µM (inactive)
CCOC(=O)c1sc2nc(SC)nc3c2c1NCN3c1ccc2c(c1)OCO2	23.8 µM (inactive)
S=C(N/N=C/c1ccccn1)N1CCCCC1	< 0.01 µM (active)
CC(C)(C)[Si](C)(C)OCC1OC(n2ccc(=O)[nH]c2=O)C(O[Si](C)(C)C(C)(C)C)/C1=C/C#N (stereo not drawn)	5 µM (inactive)
COC1CC(CC2CCC(C)C(C(C)C(=O)O)O2)OC2(OC(C)(C3CCC(C)(C4OC(C5OC(O)(CO)C(C)CC5C)CC4C)O3)CC2C)C1C (stereo not drawn)	1.28 µM (inactive)
CN1c2c(O)nc(N)nc2NCC1CCNc1ccc(C(=O)NC(CCC(=O)O)C(=O)O)cc1 (stereo not drawn)	4.06 µM (inactive)
C[N+]1(CCN[N+]2(C)CCCCC2)CCc2ccccc2C1 (stereo not drawn)	> 100 µM (inactive)

Would you mind listing GI50 for each of the following compounds?
1. O=S(=O)(c1ccccc1)c1cccc2c1NCCC2
2. Cc1coc2c1C[C@@]1(C)[C@H](CCC[C@@H]1C)[C@H]2O
3. O=C1N=C2N=C(c3ccc(Cl)cc3)N(c3ccc(Cl)cc3)N2Sc2ccccc21
4. O=C(NNC(=S)NC1CCCCC1)C12CC3CC(CC(C3)C1)C2
5. O=C1NCCS(=O)(=O)N[C@@H](CC2=CC=CCC2)C(=O)N2CCCC12 (stereo partly drawn)

1. 35.6 µM (inactive)
2. 56.4 µM (inactive)
3. > 100 µM (inactive)
4. > 100 µM (inactive)
5. > 100 µM (inactive)
